# Test system: H-125 or OCI-AML3 cells
# assay_details: Cell viability (MTS) assay, simultaneous P15 peptide + cytostatic drug, 72 hours
# Assay type: cell-based, human
# condition: H-125 or OCI-AML3 cells, 72 hours, simultaneous P15 50 μM; read-out: IC50, Cytostatic drug + P15 (50 μM)
Entries whose IC50 is below 0.05 µM take fulfilled; entries at or above 0.05 µM take not fulfilled.

Reference set (4 entries):
>  <compound>
CC[C@]1(O)C[C@H]2CN(CCc3c([nH]c4ccccc34)[C@@](C(=O)OC)(c3cc4c(cc3OC)N(C=O)[C@H]3[C@@](O)(C(=O)OC)[C@H](OC(C)=O)[C@]5(CC)C=CCN6CC[C@]43[C@@H]65)C2)C1

>  <qualitative_label>
fulfilled

$$$$
>  <compound>
O=c1[nH]cc(F)c(=O)[nH]1

>  <qualitative_label>
not fulfilled

$$$$
>  <compound>
N.N.[Cl][Pt][Cl] [Cisplatin, cisplatin]

>  <qualitative_label>
fulfilled

$$$$
>  <compound>
COc1cc([C@@H]2c3cc4c(cc3[C@@H](O[C@@H]3O[C@@H]5CO[C@@H](C)O[C@H]5[C@H](O)[C@H]3O)[C@H]3COC(=O)[C@H]23)OCO4)cc(OC)c1O [Etoposide, etoposide]

>  <qualitative_label>
fulfilled

$$$$

Then this compound:
Does CO[C@@]12[C@H](COC(N)=O)C3=C(C(=O)C(C)=C(N)C3=O)N1C[C@@H]1N[C@@H]12 have IC50 strictly under 0.05 µM? fulfilled

----------
# Test system: H-125 or OCI-AML3 cells
# assay_details: Cell viability (MTS) assay, simultaneous P15 peptide + cytostatic drug, 72 hours
# Type: cell-based, human
# condition: H-125 or OCI-AML3 cells, 72 hours, simultaneous P15 50 μM; read-out: IC50, Cytostatic drug + P15 (50 μM)
Can you tell me IC50 for the items I'm about to list?
Answers are plain numbers, in nM.

The following compounds have reported results that may help.
>  <molecular_string>
N.N.O=C([O-])C1(C(=O)[O-])CCC1.[Pt+2]

>  <recorded_metric>
IC50

>  <display_unit>
nM

>  <measurement>
36

$$$$
>  <molecular_string>
CC(C)C[C@H](NC(=O)[C@H](Cc1ccccc1)NC(=O)c1cnccn1)B(O)O

>  <recorded_metric>
IC50

>  <display_unit>
nM

>  <measurement>
700

$$$$
>  <molecular_string>
CC(=O)O[C@H]1C(=O)[C@@]2(C)[C@H]([C@H](OC(=O)c3ccccc3)[C@]3(O)C[C@H](OC(=O)[C@H](O)[C@@H](NC(=O)c4ccccc4)c4ccccc4)C(C)=C1C3(C)C)[C@]1(OC(C)=O)CO[C@@H]1C[C@@H]2O

>  <recorded_metric>
IC50

>  <display_unit>
nM

>  <measurement>
3

$$$$
>  <molecular_string>
O=C1c2c(O)ccc(O)c2C(=O)c2c(NCCNCCO)ccc(NCCNCCO)c21

>  <recorded_metric>
IC50

>  <display_unit>
nM

>  <measurement>
32

$$$$
>  <molecular_string>
Nc1ccn([C@@H]2O[C@H](CO)[C@@H](O)[C@@H]2O)c(=O)n1

>  <recorded_metric>
IC50

>  <display_unit>
nM

>  <measurement>
68

$$$$

Kindly review the next compound as well.
Entry COc1cccc2c1C(=O)c1c(O)c3c(c(O)c1C2=O)C[C@@](O)(C(=O)CO)C[C@@H]3O[C@H]1C[C@H](N)[C@H](O)[C@H](C)O1 : reported IC50 = ? 76
